# METHOD: Cytotoxicity against human U373 cells after 72 hrs by MTT assay
# Format: functional, cell-based, U-373MG ATCC
# CONDITIONS: U373 MG
Parameter: IC50. Scope: all listed entries.

Input line: What does the data say about its IC50? Entry: COC(=O)c1sc2nc(N3CCCCC3)sc2c1C
Output line: > 100 µM

Input line: Now try CSc1nc(Cl)c(C(=O)c2ccccc2)s1 .
Output line: > 100 µM

Input line: Now try CCOC(=O)c1sc(N2CCCC2)nc1Cl .
Output line: > 100 µM

Input line: Now try C=C(C)[C@@H]1CC=C(CO)CC1 [PERILLYL ALCOHOL] .
Output line: > 1000 µM
